Reported IC50 values follow for various molecules
Target: Acetylcholinesterase (Electrophorus electricus, UniProt O42275)
Sequence (O42275 whole entry): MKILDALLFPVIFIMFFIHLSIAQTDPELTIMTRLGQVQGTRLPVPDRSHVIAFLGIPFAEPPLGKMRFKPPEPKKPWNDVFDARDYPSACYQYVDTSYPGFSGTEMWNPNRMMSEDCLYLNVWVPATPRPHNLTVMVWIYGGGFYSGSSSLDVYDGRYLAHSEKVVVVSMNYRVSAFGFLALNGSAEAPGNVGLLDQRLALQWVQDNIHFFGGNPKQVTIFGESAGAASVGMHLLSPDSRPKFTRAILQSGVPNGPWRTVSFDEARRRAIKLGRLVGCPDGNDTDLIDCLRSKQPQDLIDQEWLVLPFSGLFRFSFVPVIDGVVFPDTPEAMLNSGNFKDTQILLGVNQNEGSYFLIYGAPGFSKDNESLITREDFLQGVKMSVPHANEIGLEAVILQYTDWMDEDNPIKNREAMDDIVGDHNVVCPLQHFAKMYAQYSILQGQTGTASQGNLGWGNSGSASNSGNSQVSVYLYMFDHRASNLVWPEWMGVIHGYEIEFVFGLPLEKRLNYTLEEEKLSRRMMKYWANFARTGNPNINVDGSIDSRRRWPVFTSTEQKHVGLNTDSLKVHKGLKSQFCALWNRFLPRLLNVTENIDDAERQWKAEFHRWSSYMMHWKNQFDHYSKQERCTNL
Measure: IC50 (µM)

| Smiles structure | Measure | Unit annotation | Reported value |
| --- | --- | --- | --- |
| Oc1c(Cl)cc(Cl)c2ccc(/C=C/C3=CCN(Cc4ccccc4Cl)CC3)nc12 | IC50 | µM | 0.41 |
| Cc1ccccc1CN1CC=C(/C=C/c2ccc3cccc(O)c3n2)CC1 | IC50 | µM | 0.4 |
| Cc1cccc(CN2CC=C(/C=C/c3ccc4c(Cl)cc(Cl)c(O)c4n3)CC2)c1 | IC50 | µM | 0.25 |
| Oc1c(Cl)cc(Cl)c2ccc(/C=C/C3=CCN(Cc4ccccc4C(F)(F)F)CC3)nc12 | IC50 | µM | 0.34 |
| Oc1cccc2ccc(/C=C/C3=CCN(Cc4ccccc4F)CC3)nc12 | IC50 | µM | 0.57 |
